Molecular target: T1, TNFR1 (Homo sapiens, UniProt P19438)
T1 chain: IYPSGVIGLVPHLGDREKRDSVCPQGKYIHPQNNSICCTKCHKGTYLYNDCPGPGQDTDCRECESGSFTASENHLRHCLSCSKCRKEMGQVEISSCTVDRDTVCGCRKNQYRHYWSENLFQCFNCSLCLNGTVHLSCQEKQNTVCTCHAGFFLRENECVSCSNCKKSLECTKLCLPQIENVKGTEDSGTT
Test: yeast display SC50
metric: apparent Kd (screen)
Record the result as a number with its unit.

Sample E104Y (designed binder) SMEEEVEKAAKEYEKKKKEAIEKHLEKLKAKDKEAAERFLKELEEAAKEYAKDEAKTMSEEEAKRRAKKYKEKVLLSELSEEEQKEIKEAEEKLVRTILKYVEYAAK — what was its apparent Kd (screen)?
0.653 nM

Consider next the binder I98G (designed binder) SMEEEVEKAAKEYEKKKKEAIEKHLEKLKAKDKEAAERFLKELEEAAKEYAKDEAKTMSEEEAKRRAKKYKEKVLLSELSEEEQKEIKEAEEKLVRTGLKYVEEAAK in the same way.
6.43 nM
